Ok so here's the combined literature set: log10 IC50 for Cytosolic phospholipase A2 (Homo sapiens, UniProt P47712).
In our notation, the value equals log10 of IC50 in nM.

Reference set (2 entries):
Incoming: Record O=C1NC(=S)S/C1=C\c1ccc(C(=O)NC[C@@H]2C[C@@H](OCc3ccccc3-c3ccccc3)CN2C(=O)c2ccccc2C(=O)c2ccc(Cl)cc2)cc1 : what is its log10 IC50 with Cytosolic phospholipase A2 (Homo sapiens, UniProt P47712)?
Outgoing: 2.45

Incoming: Record O=C(O)c1ccc(OCCc2c(CCNS(=O)(=O)Cc3ccc4ccccc4c3)n(C(c3ccccc3)c3ccccc3)c3ccc(Cl)cc23)cc1 : what is its log10 IC50 with Cytosolic phospholipase A2 (Homo sapiens, UniProt P47712)?
Outgoing: 2.49

New cases:
Incoming: Record O=C(O)c1ccc(OCCc2c(CCNS(=O)(=O)CCc3cccc4ccccc34)n(C(c3ccccc3)c3ccccc3)c3ccc(Cl)cc23)cc1 : what is its log10 IC50 with Cytosolic phospholipase A2 (Homo sapiens, UniProt P47712)?
Outgoing: 3.30

Incoming: Record O=C1NC(=S)S/C1=C\c1ccc(NC(=O)[C@@H]2C[C@H](SCc3ccccc3)CN2S(=O)(=O)c2ccc(Cc3ccccc3)cc2)cc1 : what is its log10 IC50 with Cytosolic phospholipase A2 (Homo sapiens, UniProt P47712)?
Outgoing: 3.69

Incoming: Record O=C1NC(=S)SC1=C[C@@H]1C[C@@H](OCc2ccccc2-c2ccccc2)CN1C(=O)c1ccccc1C(=O)c1ccc(F)cc1 : what is its log10 IC50 with Cytosolic phospholipase A2 (Homo sapiens, UniProt P47712)?
Outgoing: 4.00

Incoming: Record O=C(O)c1ccc(CCCc2c(CCNS(=O)(=O)c3cccc(OC(F)(F)F)c3)n(C(c3ccccc3)c3ccccc3)c3ccc(Cl)cc23)cc1 : what is its log10 IC50 with Cytosolic phospholipase A2 (Homo sapiens, UniProt P47712)?
Outgoing: 2.54

Incoming: Record O=C1NC(=O)C(=Cc2ccc(C(=O)NCC3CC(SC(c4ccccc4)(c4ccccc4)c4cc(F)cc(F)c4)CN3C(=O)c3ccccc3C(=O)c3ccc(F)cc3F)cc2)S1 (centres unmarked) : what is its log10 IC50 with Cytosolic phospholipase A2 (Homo sapiens, UniProt P47712)?
Outgoing: 0.43

Incoming: Record CCOc1cccc(-c2ccccc2O[C@@H]2C[C@@H](CNC(=O)c3ccc(/C=C4\SC(=O)NC4=O)cc3)N(C(=O)c3ccccc3C(=O)c3ccc(F)cc3)C2)c1 : what is its log10 IC50 with Cytosolic phospholipase A2 (Homo sapiens, UniProt P47712)?
Outgoing: 2.00

Incoming: Record CS(=O)(=O)CS(=O)(=O)NCCc1c(CCOc2ccc(C(=O)O)cc2)c2cc(Cl)ccc2n1C(c1ccccc1)c1ccccc1 : what is its log10 IC50 with Cytosolic phospholipase A2 (Homo sapiens, UniProt P47712)?
Outgoing: 2.74

Incoming: Record O=C1NC(=O)/C(=C/c2ccc(C(=O)NC[C@@H]3C[C@@H](Oc4cccc5ccccc45)CN3C(=O)c3ccccc3C(=O)c3ccc(F)cc3)cc2)S1 : what is its log10 IC50 with Cytosolic phospholipase A2 (Homo sapiens, UniProt P47712)?
Outgoing: 2.04

Incoming: Record O=C1NC(=O)/C(=C/c2ccc(CCC[C@@H]3C[C@H](SC(c4ccccc4)(c4ccccc4)c4ccccc4)CN3C(=O)CCc3ccccc3)cc2)S1 : what is its log10 IC50 with Cytosolic phospholipase A2 (Homo sapiens, UniProt P47712)?
Outgoing: 2.93

Incoming: Record O=C(O)c1ccc(CCCc2c(CCNS(=O)(=O)c3cc(F)c(Cl)cc3F)n(C(c3ccccc3)c3ccccc3)c3ccc(Cl)cc23)cc1 : what is its log10 IC50 with Cytosolic phospholipase A2 (Homo sapiens, UniProt P47712)?
Outgoing: 2.43

Incoming: Record O=C1NC(=O)/C(=C/c2ccc(C(=O)NC[C@@H]3C[C@@H](Oc4ccccc4-c4ccccc4-c4ccccc4)CN3C(=O)c3ccccc3C(=O)c3ccc(F)cc3)cc2)S1 : what is its log10 IC50 with Cytosolic phospholipase A2 (Homo sapiens, UniProt P47712)?
Outgoing: 1.76

Incoming: Record O=C1NC(=O)/C(=C/c2ccc(NC(=O)[C@@H]3C[C@@H](OCc4ccccc4-c4ccccc4)CN3C(=O)c3ccccc3C(=O)c3ccc(F)cc3)s2)S1 : what is its log10 IC50 with Cytosolic phospholipase A2 (Homo sapiens, UniProt P47712)?
Outgoing: 3.00

Incoming: Record O=C1NC(=S)S/C1=C\c1ccc(S(=O)(=O)NC[C@@H]2C[C@@H](SCc3ccccc3-c3ccccc3)CN2C(=O)c2ccccc2C(=O)c2ccc(F)cc2)cc1 : what is its log10 IC50 with Cytosolic phospholipase A2 (Homo sapiens, UniProt P47712)?
Outgoing: 2.68

Incoming: Record O=C(O)c1ccc(OCCc2c(CCNS(=O)(=O)Cc3ccc(S(=O)(=O)N4CCCCC4)cc3)n(C(c3ccccc3)c3ccccc3)c3ccc(Cl)cc23)cc1 : what is its log10 IC50 with Cytosolic phospholipase A2 (Homo sapiens, UniProt P47712)?
Outgoing: 2.70

Incoming: Record CS(=O)(=O)c1ccc(S(=O)(=O)NCCc2c(CCOc3ccc(C(=O)O)cc3)c3cc(Cl)ccc3n2C(c2ccccc2)c2ccccc2)cc1 : what is its log10 IC50 with Cytosolic phospholipase A2 (Homo sapiens, UniProt P47712)?
Outgoing: 2.84

Incoming: Record O=C(O)c1ccc(S(=O)(=O)CCc2c(CCNS(=O)(=O)Cc3ccccc3F)n(C(c3ccccc3)c3ccccc3)c3ccc(Cl)cc23)cc1 : what is its log10 IC50 with Cytosolic phospholipase A2 (Homo sapiens, UniProt P47712)?
Outgoing: 2.30
